Source listed as patent US6486199B1.

- Tested on: adult schistosomes (49-day-old) of Schistosoma mansoni
- measurement protocol: effect on adult schistosomes (49-day-old) in mice
- Assay type: in vivo
- setup conditions: single 400 mg/kg per os
measurement name: Percentage of dead worm

O=C1CCC2(CC1)OOC1(CCCCCCCCCCC1)O2 [OZ21]
0

Consider the record given below.
State, in one line, measured Percentage of dead worm of CON=C1CCC2(CC1)OOC1(O2)C2CC3CC(C2)CC1C3 (stereo not shown) [OZ15] 10 (21/210)

---

- Test system: ANKA strain of P. Berghei
- measurement protocol: single dose STI in vivo screen in infected Moro SPF mice
- setup conditions: percent reduction in parasitemia day 3 post-infection; single 100 mg/kg po
measurement name: Activity (%) po

Here's what some known entries look like.
CCOC(=O)CCC1CCCCC12OOC1(CCCCC1)O2 (centres unmarked)
0/0%
C1C2CC3CC1CC(C2)C31OOC2(O1)C1CC3CC(C1)CC2C3 (centres unmarked)
0/0%
C1CCC2(CC1)OOC1(CCCCC1)O2
0/0%
CCO[C@H]1O[C@@H]2O[C@@]3(C)CC[C@H]4[C@H](C)CC[C@@H]([C@H]1C)[C@@]24OO3 [Arteether, arteether, reference compound]
99.98%
O=C1CCC2(CC1)OOC1(O2)C2CC3CC(C2)CC1C3 (centres unmarked)
100/100%
C[C@@H]1CC[C@H]2[C@@H](C)C(=O)O[C@@H]3O[C@@]4(C)CC[C@@H]1[C@]32OO4 [Artemisinin, artemisinin, reference compound]
98%

State, in one line, measured Activity (%) po of C1CCC2(CC1)OOC1(O2)C2CC3CC(C2)CC1C3 (centres unmarked) 100/100%

State, in one line, measured Activity (%) po of O=C1CCC2(CC1)OOC1(CCCCC1)O2 0/0%

---

- measurement protocol: differential scanning calorimetry (DSC), thermal stability
- Assay type: physicochemical
- setup conditions: thermal decomposition
measurement name: Tm dec. (° C.) (°C)
Use °C as the unit, but write only the number.

c1ccc(C2CCC3(CC2)OOC2(O3)C3CCCC2CCC3)cc1 (stereo not shown)
162.3
Clc1ccc(C2CCC3(CC2)OOC2(O3)C3CC4CC(C3)CC2C4)cc1 (stereo not shown)
159.3
O=C(OC1CCC2(CC1)OOC1(O2)C2CC3CC(C2)CC1C3)c1ccccc1 (stereo not shown)
161.2
O=S1(=O)CCC2(CC1)OOC1(O2)C2CC3CC(C2)CC1C3 (stereo not shown)
147.1
CCOC(=O)CCC(=O)N1CCC2(CC1)OOC1(O2)C2CC3CC(C2)CC1C3 (stereo not shown)
152.7

State, in one line, measured Tm dec. (° C.) of C1COC2(CCC3(CC2)OOC2(O3)C3CC4CC(C3)CC2C4)O1 (stereo not shown) 159.4

State, in one line, measured Tm dec. (° C.) of CC(C)(C)OC(=O)N1CCC2(CC1)OOC1(O2)C2CC3CC(C2)CC1C3 (stereo not shown) 159.4

---

# Lookup of reported IC50 keyed by entry
- System: chloroquine-sensitive NF54 strain of P. falciparum
- measurement protocol: in vitro screen against chloroquine-sensitive NF54 strain of P. falciparum
- Assay type: cell-based
- setup conditions: Plasmodium falciparum, NF54, read-out: IC50 (ng/ml) NF54
Use ng/mL as the unit, but write only the number.

O=[N+]([O-])c1ccc(NN=C2CCC3(CC2)OOC2(O3)C3CC4CC(C3)CC2C4)c([N+](=O)[O-])c1 (stereo not shown)
13
O=C1CCC2(CC1)OOC1(CCCCCCCCCCC1)O2
25
C1CCC2(CC1)OOC1(CCC3(CC1)OOC1(CCCCC1)O3)O2 (stereo not shown)
39
CC1(C)COC2(CCC3(CC2)OOC2(CC(C)(C)CC(C)(C)C2)O3)OC1
62
FC1CCCCC12OOC1(CCCCC1)O2 (stereo not shown)
22

State, in one line, measured IC50 of O=C(NN=C1CCC2(CC1)OOC1(O2)C2CC3CC(C2)CC1C3)Nc1ccccc1 (stereo not shown) 1.3

State, in one line, measured IC50 of C1CC2(CCO1)OOC1(O2)C2CC3CC(C2)CC1C3 (stereo not shown) 0.56

State, in one line, measured IC50 of C1COC2(CCC3(CC2)OOC2(O3)C3CC4CC(C3)CC2C4)O1 (stereo not shown) 0.67

State, in one line, measured IC50 of CO[C@H]1O[C@@H]2O[C@@]3(C)CC[C@H]4[C@H](C)CC[C@@H]([C@H]1C)[C@@]24OO3 [Artemether, artemether, reference compound] 0.37

State, in one line, measured IC50 of C1CC2(CCN1)OOC1(O2)C2CC3CC(C2)CC1C3.Cl (stereo not shown) 0.34

State, in one line, measured IC50 of C[C@H]1[C@H](OC(=O)CCC(=O)O)O[C@@H]2O[C@@]3(C)CC[C@H]4[C@H](C)CC[C@@H]1[C@@]24OO3 [Artesunate, artesunate, reference compound] 1.2

State, in one line, measured IC50 of C1CCCCCC2(CCCCC1)OOC1(O2)C2CC3CC(C2)CC1C3 (stereo not shown) 20
